test_protocol: inhibitors of TNFa-induced NFkB p65 translocation, primary screen, imaging, HUVEC, MLSMR starter and 10KST1 sets (AID 438);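 also: compound added about 3h40 before a 20 min TNFalpha stimulation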
condition_details: HUVEC TNFa-induced p65 nuclear translocation; measured here: nuclei count (cytotoxicity indicator), at 2.08 µM
measurement_kind: cell count
Simply state the number, no unit and no words.

Please review the following examples before continuing.
CCCn1cnc2c(cnn2-c2ccc(F)cc2)c1=O: 451
Cc1ccc(N=Cc2ccc(O)cc2O)cc1F: 334

Q. For the compound shown here, Nc1cc(N)cc(-c2nc3ccccc3o2)c1 , give the reported cell count.
A. 595

Q. What value of measured cell count is listed for Cc1ccc(NC(=O)c2ccco2)cc1NC(=O)CSc1nnc(-c2cccs2)n1C ?
A. 379
